biological target: mTOR/GbL/Raptor (mTORC1) (Homo sapiens); experiment: mTOR/GbL/Raptor (mTORC1) ELISA assay; conditions: phosphorylation of 4E-BP1; 0.2 nM mTORC1, 10 μM ATP, 50 nM NHis-tagged 4E-BP1
pIC50: −log10 of the molar value.
measurementType: pIC50

// known answers, use as guide
COC(=O)Cc1c(C)nc(CN(C)C)nc1N1CCOc2ccc(-c3ccc4nc(C)[nH]c4c3)cc2C1 [Compound 6] : 5.60 to 6.30
Cc1cc(N2CCOc3ccc(-c4ccc5[nH]cnc5c4)cc3C2)nc(N)n1 [Compound 43] : 5.60 to 6.30
Cc1nc2cc(-c3ccc4c(c3)CN(c3nc(NC5CNC5)nc(C)c3C(C)C)CCO4)ccc2[nH]1 [Compound 15] : ≥ 7.00

// for each compound below, give its pIC50
1. Cc1nc(N)nc(N2CCOc3ccc(-c4cnc5[nH]c(N)nc5c4)cc3C2)c1C(C)C [Compound 46]
2. Cc1nc2cc(-c3ccc4c(c3)CN(c3nc(N)nc(C)c3C(C)C)CCO4)ccc2[nH]1 [Compound 41]
3. Cc1nc2cc(-c3ccc4c(c3)CN(c3nc(C(C)N)nc5c3CC(C)(C)CC5)CCO4)ccc2[nH]1 (stereo not drawn) [Compound 24]
4. Cc1nc2cc(-c3ccc4c(c3)CN(c3nc(NCCCN(C)C)nc(C)c3Cc3ccc(F)cc3)CCO4)ccc2[nH]1 [Compound 13]

[reply]
1: ≥ 7.00; 2: ≥ 7.00; 3: ≥ 7.00; 4: ≥ 7.00

Provide the reported pIC50 of each entry below, same order.
1. COc1ccc(-c2ccc3c(c2)CN(c2nc(N)nc(C)c2C(C)C)CCO3)cc1NS(C)(=O)=O [Compound 16]
2. Cc1nc(N)nc(N2CCOc3ccc(-c4cnc5[nH]cnc5c4)cc3C2)c1C(C)C [Compound 52]
3. COc1ccc(-c2ccc3c(c2)CN(c2nc(CN(C)C)nc4c2CC(C)(C)CC4)CCO3)cc1C(C)=O [Compound 18]

[reply]
1. ≥ 7.00
2. ≥ 7.00
3. 6.30 to 7.00

Below is a list of compounds. For each, state its recorded pIC50.
1. Cc1nc2cc(-c3ccc4c(c3)CN(c3nc(N)nc5c3CC(C)(C)CC5)CCO4)ccc2[nH]1 [Compound 29]
2. CC(=O)NCc1nc2c(c(N3CCOc4ccc(-c5ccc6[nH]c(C)nc6c5)cc4C3)n1)CC(C)(C)CC2 [Compound 26]
3. Cc1nc2cc(-c3ccc4c(c3)CN(c3nc(NCCN(C)C)nc(C)c3Cc3ccc(F)cc3)CCO4)ccc2[nH]1 [Compound 11]

[reply]
1. ≥ 7.00
2. ≥ 7.00
3. ≥ 7.00

# return pIC50 for each item in the list
1. Cc1nc2ccc(-c3cc(F)c4c(c3)CN(c3nc(N)nc(C)c3C(C)C)CCO4)cc2[nH]1 [Compound 51]
2. Cc1nc2cc(-c3ccc4c(c3)CN(c3nc(NC5CNC5)nc(C)c3Cc3ccc(F)cc3)CCO4)ccc2[nH]1 [Compound 14]
3. CCN(CC)Cc1nc(C)c(C(C)C)c(N2CCOc3ccc(-c4ccc5nc(C)[nH]c5c4)cc3C2)n1 [Compound 3]

[reply]
["≥ 7.00", "≥ 7.00", "6.30 to 7.00"]

----------
target: mTOR/GbL/Raptor (mTORC1) (Homo sapiens); experiment: mTOR/GbL/Raptor (mTORC1) ELISA assay; conditions: phosphorylation of 4E-BP1; 0.2 nM mTORC1, 10 μM ATP, 50 nM NHis-tagged 4E-BP1
pIC50: −log10 of the molar value.
Can you tell me pIC50 for the items I'm about to list?

# count of solved cases: 4
COc1ccc(-c2ccc3c(c2)CN(c2nc(CN(C)C)nc4c2CC(C)(C)CC4)CCO3)cc1OC(F)F [Compound 8] : 6.30 to 7.00
Cc1nc2cc(-c3ccc4c(c3)CN(c3nc(N)nc(C)c3C(C)C)CCO4)cnc2[nH]1 [Compound 50] : ≥ 7.00
Cc1nc2cc(-c3ccc4c(c3)CN(c3nc(CN(C)C)nc(C)c3Cl)CCO4)ccc2[nH]1 [Compound 31] : 5.60 to 6.30
Cc1nc2cc(-c3ccc4c(c3)CN(c3cc(N)ncc3C#N)CCO4)ccc2[nH]1 [Compound 28] : ≥ 7.00

For each entry beneath this line, provide reported pIC50.
1. C=CCc1c(C)nc(N)nc1N1CCOc2ccc(-c3ccc4nc(C)[nH]c4c3)cc2C1 [Compound 35]
2. Cc1nc2ccc(-c3ccc4c(c3)CN(c3nc(CN(C)C)nc(C)c3C)CCO4)cc2[nH]1 [Compound 2]
3. COc1ccc2c(N3CCOc4ccc(-c5cnc6[nH]cnc6c5)cc4C3)nc(CN(C)C)nc2c1 [Compound 49]
4. Cc1nc2cc(-c3ccc4c(c3)CN(c3nc(CN(C)C)nc(C)c3CCCF)CCO4)ccc2[nH]1 [Compound 22]
5. CCNc1nc(C)c(Cc2ccc(F)cc2)c(N2CCOc3ccc(-c4ccc5[nH]c(C)nc5c4)cc3C2)n1 [Compound 12]
6. COc1ccc2c(N3CCOc4ccc(-c5ccc6[nH]cnc6c5)cc4C3)nc(CN(C)C)nc2c1 [Compound 37]
7. C=CCc1c(C)nc(CN(C)C)nc1N1CCOc2ccc(-c3ccc4nc(C)[nH]c4c3)cc2C1 [Compound 33]

[reply]
1. ≥ 7.00
2. 5.60 to 6.30
3. 5.60 to 6.30
4. 5.60 to 6.30
5. ≥ 7.00
6. 5.60 to 6.30
7. ≥ 7.00

I have 3 compounds here; please give me pIC50 for each one.
1. Cc1nc2cc(-c3ccc4c(c3)CN(c3nc(N)nc(C)c3Cc3ccc(F)cc3)CCO4)ccc2[nH]1 [Compound 39]
2. COCCc1c(C)nc(CN(C)C)nc1N1CCOc2ccc(-c3ccc4nc(C)[nH]c4c3)cc2C1 [Compound 1]
3. Cc1nc2cc(-c3ccc4c(c3)CN(c3nc(NC(C)C)nc(C)c3Cc3ccc(F)cc3)CCO4)ccc2[nH]1 [Compound 19]

[reply]
≥ 7.00
5.60 to 6.30
6.30 to 7.00
